molecular target: KIT (Homo sapiens, UniProt P10721); construct: made in house; assay: Competition binding assay, KIT Kd
Sequence (P10721 26-976): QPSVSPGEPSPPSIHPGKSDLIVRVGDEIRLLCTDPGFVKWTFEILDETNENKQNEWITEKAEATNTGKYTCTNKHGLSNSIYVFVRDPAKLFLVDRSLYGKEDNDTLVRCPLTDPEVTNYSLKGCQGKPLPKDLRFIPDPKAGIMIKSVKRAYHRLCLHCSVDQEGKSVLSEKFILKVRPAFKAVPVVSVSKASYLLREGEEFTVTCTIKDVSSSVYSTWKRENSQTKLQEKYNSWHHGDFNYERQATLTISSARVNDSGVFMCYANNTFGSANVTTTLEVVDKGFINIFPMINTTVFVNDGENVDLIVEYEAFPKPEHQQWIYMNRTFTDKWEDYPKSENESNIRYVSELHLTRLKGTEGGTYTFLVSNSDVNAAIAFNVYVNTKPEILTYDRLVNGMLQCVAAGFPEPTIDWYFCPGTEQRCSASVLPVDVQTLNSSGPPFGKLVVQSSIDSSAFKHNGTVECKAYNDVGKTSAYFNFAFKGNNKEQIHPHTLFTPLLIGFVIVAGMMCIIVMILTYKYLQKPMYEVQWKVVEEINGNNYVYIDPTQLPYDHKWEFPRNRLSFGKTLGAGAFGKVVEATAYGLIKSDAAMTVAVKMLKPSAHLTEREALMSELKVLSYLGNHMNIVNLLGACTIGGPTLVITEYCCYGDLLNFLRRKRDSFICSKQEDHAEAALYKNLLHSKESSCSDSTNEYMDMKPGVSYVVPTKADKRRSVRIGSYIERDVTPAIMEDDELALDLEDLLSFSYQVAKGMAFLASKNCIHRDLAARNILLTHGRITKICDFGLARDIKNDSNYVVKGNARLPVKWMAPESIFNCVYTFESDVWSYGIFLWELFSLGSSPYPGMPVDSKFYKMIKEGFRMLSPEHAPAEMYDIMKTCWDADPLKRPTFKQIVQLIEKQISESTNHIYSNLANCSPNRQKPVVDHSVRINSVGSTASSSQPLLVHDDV
Observed property: Kd

Known results for molecules:
> print(dat)
                                   molecule     meas.value
1  CNC(=O)c1cn(Cc2ccc3nc(N[C@@H]4CCCC[C@H]4O)sc3c2)cn1 [Example 37]         > 2 µM
2  O[C@@H]1CCCC[C@H]1Nc1nc2ccc(Cn3cnc4cc(-c5cccnc5)cnc43)cc2s1 [Example 40]       ≤ 0.1 µM
3  NCc1cnc2c(c1)ncn2Cc1ccc2nc(N[C@@H]3CCCC[C@H]3O)sc2c1 [Example 91]  0.1 to 0.5 µM
4  COc1cc2ncn(Cc3ccc4nc(N[C@@H]5CCCCC[C@H]5O)sc4c3)c2cc1OC (racemic) [Example 50]       ≤ 0.1 µM

Next molecule, Kd to be filled in.
Exercise: Recorded Kd for COc1cc2ncn(Cc3ccc4nc(NCc5ccccc5)sc4c3)c2cc1OC [Example 13] , please?
Key: 0.1 to 0.5 µM
